tested on: primary human fibroblasts derived from IPF patients (LL29 cells) treated with TGF-β1; experiment: Inhibition of the fibrotic process (αSMA staining) in TGF-β1-treated fibroblasts; assay type: cell-based; settings: Fibroblast, 96 h, read-out: percent inhibition at 10 μM
reported metric: inhibition at 10 µM

>>> df
                         structure_notation      reported_metric  observed_measurement
0  CN(C)c1cncc(-c2ccc3[nH]nc(-c4cc5c(-c6cccnc6)nccc5[nH]4)c3c2)c1  inhibition at 10 µM                 46.9%
1  O=C(Nc1cncc(-c2ccc3[nH]nc(-c4cc5c(-c6cccnc6)nccc5[nH]4)c3c2)c1)c1ccccc1  inhibition at 10 µM                    0%
2  CN1CCN(c2nccc3[nH]c(-c4n[nH]c5ccc(-c6cncc(NC(=O)C7CCCC7)c6)cc45)cc23)CC1  inhibition at 10 µM                    0%
3  Nc1cncc(-c2ccc3[nH]nc(-c4cc5c(N6CCCCC6)nccc5[nH]4)c3c2)n1  inhibition at 10 µM                    0%

----------
tested on: primary human fibroblasts derived from IPF patients (LL29 cells) treated with TGF-β1; assay: Inhibition of the fibrotic process (αSMA staining) in TGF-β1-treated fibroblasts; type: cell-based; conditions: Fibroblast, 96 h, % αSMA-positive LL29 cells, TGF-β1 20 ng/mL, 4 days
pEC50: −log10 of the molar value.
Lab note: compare pEC50 against 6. Equal or greater, write yes (1). Smaller, write no (0).

>>> df
                         structure_notation    group
0  Cc1ccncc1-c1ccc2[nH]nc(-c3cc4c(-c5ccc(F)cc5)nccc4[nH]3)c2c1   no (0)
1  c1cc2[nH]c(-c3n[nH]c4ccc(-c5cncc(OC6CCCCC6)c5)cc34)cc2c(N2CCCCC2)n1  yes (1)
2  CN(C)Cc1cncc(-c2ccc3[nH]nc(-c4cc5c(N6CCCCC6)nccc5[nH]4)c3c2)c1   no (0)
3  CC(C)CC(=O)Nc1cncc(-c2ccc3[nH]nc(-c4cc5c(N6CCN(C)CC6)nccc5[nH]4)c3c2)c1   no (0)
4  Fc1ccc(-c2nccc3[nH]c(-c4n[nH]c5ccc(-c6cncnc6)cc45)cc23)cc1  yes (1)
5  CC(C)CC(=O)Nc1cncc(-c2ccc3[nH]nc(-c4cc5c(-c6cc(F)cc(CNS(C)(=O)=O)c6)nccc5[nH]4)c3c2)c1   no (0)

----------
Below: a set of entries, each annotated with reported inhibition at 10 µM.
tested on: SW480 colon cancer cells; assay: Cell viability assay (CellTiter-Blue); assay type: cell-based; conditions: Homo sapiens, SW480, 96 h; read-out: percent inhibition at 10 μM
reported metric: inhibition at 10 µM (%)

>>> df
                         structure_notation  observed_measurement
0  CC(C)C(=O)Nc1cncc(-c2ccc3[nH]nc(-c4cc5c(N6CCN(C)CC6)nccc5[nH]4)c3c2)c1                  38.5
1  CC(C)(C)CC(=O)Nc1cncc(-c2ccc3[nH]nc(-c4cc5c(-c6ccc(F)cc6)nccc5[nH]4)c3c2)c1                   7.7
2  CN1CCN(c2nccc3[nH]c(-c4n[nH]c5ccc(-c6cncc(NC(=O)C7CCCC7)c6)cc45)cc23)CC1                  34.3
3  O=C(Nc1cncc(-c2ccc3[nH]nc(-c4cc5c(-c6cccnc6)nccc5[nH]4)c3c2)c1)c1ccccc1                  15.5

----------
system: Wnt activity (Sp5-Luc reporter, SW480 colon carcinoma cells); assay: Screening assay for Wnt activity (Sp5-Luc reporter gene assay in SW480 cells); format: cell-based; conditions: Homo sapiens, SW480; read-out: percent inhibition at 10 μM
Lab note: compare inhibition at 10 µM against 40%. Equal or greater, write criterion met. Smaller, write criterion not met.

>>> print(df.to_string())
                         structure_notation                             target_system              group
0  CN1CCN(c2nccc3[nH]c(-c4n[nH]c5ccc(-c6cncnc6)cc45)cc23)CC1  Wnt activity (Sp5-Luc reporter, SW480 colon carcinoma cells)  criterion not met
1  Fc1cccc(-c2nccc3[nH]c(-c4n[nH]c5ccc(-c6ccncc6)cc45)cc23)c1  Wnt activity (Sp5-Luc reporter, SW480 colon carcinoma cells)      criterion met
2  CN1CCN(c2nccc3[nH]c(-c4n[nH]c5ccc(-c6cncc(CN7CCCCC7)c6)cc45)cc23)CC1  Wnt activity (Sp5-Luc reporter, SW480 colon carcinoma cells)      criterion met
3  CN(C)c1cncc(-c2ccc3[nH]nc(-c4cc5c(-c6cccnc6)nccc5[nH]4)c3c2)c1  Wnt activity (Sp5-Luc reporter, SW480 colon carcinoma cells)  criterion not met
4  CS(=O)(=O)NCc1cc(F)cc(-c2nccc3[nH]c(-c4n[nH]c5ccc(-c6ccncc6)cc45)cc23)c1  Wnt activity (Sp5-Luc reporter, SW480 colon carcinoma cells)  criterion not met
5  CN1CCN(c2nccc3[nH]c(-c4n[nH]c5ccc(-c6ccccn6)cc45)cc23)CC1  Wnt activity (Sp5-Luc reporter, SW480 colon carcinoma cells)  criterion not met

----------
tested on: primary human fibroblasts derived from IPF patients (LL29 cells) treated with TGF-β1; assay: Inhibition of the fibrotic process (αSMA staining) in TGF-β1-treated fibroblasts; type: cell-based; conditions: Fibroblast, 96 h, read-out: percent inhibition at 10 μM
reported metric: inhibition at 10 µM (%)

>>> df
                                   compound  endpoint_unit  observed_measurement
0  Nc1cncc(-c2ccc3[nH]nc(-c4cc5c(-c6ccccc6F)nccc5[nH]4)c3c2)c1 [Compound 59]              %                  46.6
1  CC(C)(C)CC(=O)Nc1cncc(-c2ccc3[nH]nc(-c4cc5c(-c6ccc(F)cc6)nccc5[nH]4)c3c2)c1 [Compound 44]              %                     0
2  CN1CCN(c2nccc3[nH]c(-c4n[nH]c5ccc(-c6cncc(CN7CCCC7)c6)cc45)cc23)CC1 [Compound 238]              %                  45.7

----------
Below: a set of entries, each annotated with reported EC50.
System: primary human fibroblasts derived from IPF patients (LL29 cells) treated with TGF-β1
Experiment: Inhibition of the fibrotic process (αSMA staining) in TGF-β1-treated fibroblasts
Format: cell-based
Conditions: Fibroblast, 96 h, % αSMA-positive LL29 cells, TGF-β1 20 ng/mL, 4 days
Description: Representative compounds were screened using primary human fibroblasts (derived from IPF patients) treated with TGF-β1 to determine their ability to inhibit the fibrotic process. LL29 cells are plated at 1,500 cells/well in 80 μL/well F12 medium supplemented with 1% Fetal Bovine Serum. […] Wells treated with TGF-P1 and containing DMSO were used as controls. […]
reported metric: EC50 (nM)

                          structure_notation  value_operator  observed_measurement
 0  Fc1ccc(-c2nccc3[nH]c(-c4n[nH]c5ccc(-c6cncc(CN7CCCC7)c6)cc45)cc23)cc1               =                  1340
 1  CN(C)Cc1cncc(-c2ccc3[nH]nc(-c4cc5c(-c6ccc(F)cc6)nccc5[nH]4)c3c2)c1               =                  2650
 2  Nc1cncc(-c2ccc3[nH]nc(-c4cc5c(-c6cccnc6)nccc5[nH]4)c3c2)c1               =                   113
 3  CN1CCN(c2nccc3[nH]c(-c4n[nH]c5ccc(-c6cncc(NC(=O)c7ccccc7)c6)cc45)cc23)CC1               =                  1610
 4  c1cc2[nH]c(-c3n[nH]c4ccc(-c5cncc(CN6CCCCC6)c5)cc34)cc2c(-c2ccoc2)n1               =                  1150
 5  COc1cncc(-c2ccc3[nH]nc(-c4cc5c(-c6ccsc6)nccc5[nH]4)c3c2)c1               =                  2100
 6  CCC(=O)Nc1cncc(-c2ccc3[nH]nc(-c4cc5c(N6CCCCC6)nccc5[nH]4)c3c2)c1               =                   149
 7  CC(C)(C)CC(=O)Nc1cncc(-c2ccc3[nH]nc(-c4cc5c(-c6ccc(F)cc6)nccc5[nH]4)c3c2)c1               >                 10000
 8  O=C(Nc1cncc(-c2ccc3[nH]nc(-c4cc5c(-c6ccncc6)nccc5[nH]4)c3c2)c1)C1CCCC1               =                  2440
 9  CN1CCN(c2nccc3[nH]c(-c4n[nH]c5ccc(-c6cncc(CN7CCCCC7)c6)cc45)cc23)CC1               =                  5120
10  O=C(Cc1ccccc1)Nc1cncc(-c2ccc3[nH]nc(-c4cc5c(N6CCCCC6)nccc5[nH]4)c3c2)c1               =                   505
11  CS(=O)(=O)NCc1cc(F)cc(-c2nccc3[nH]c(-c4n[nH]c5ccc(-c6cncnc6)cc45)cc23)c1               >                 10000
12  Fc1ccccc1-c1nccc2[nH]c(-c3n[nH]c4ccc(-c5cncc(CN6CCCCC6)c5)cc34)cc12               =                  1940
13  Cc1ncc(-c2ccc3[nH]nc(-c4cc5c(-c6ccncc6)nccc5[nH]4)c3c2)n1C               =                  9980
14  CCCC(=O)Nc1cncc(-c2ccc3[nH]nc(-c4cc5cnccc5[nH]4)c3c2)c1               =                   149
15  COc1cncc(-c2ccc3[nH]nc(-c4cc5c(-c6ccoc6)nccc5[nH]4)c3c2)c1               =                   741
16  CN1CCN(c2nccc3[nH]c(-c4n[nH]c5ccc(-c6cncc(CN7CCCC7)c6)cc45)cc23)CC1               >                 10000
17  CS(=O)(=O)NCc1cc(F)cc(-c2nccc3[nH]c(-c4n[nH]c5ccc(-c6cncc(NC(=O)C7CC7)c6)cc45)cc23)c1               =                  5120
18  NC1CN(c2cncc(-c3ccc4[nH]nc(-c5cc6c(N7CCCCC7)nccc6[nH]5)c4c3)n2)C1               =                   236
19  Cc1ccncc1-c1ccc2[nH]nc(-c3cc4c(N5CCN(C)CC5)nccc4[nH]3)c2c1               =                  2980
20  CCCCC(=O)Nc1cncc(-c2ccc3[nH]nc(-c4cc5c(-c6ccccc6F)nccc5[nH]4)c3c2)c1               =                   254
21  CC(C)Nc1cncc(-c2ccc3[nH]nc(-c4cc5c(-c6ccc(F)cc6)nccc5[nH]4)c3c2)c1               =                   549
22  CCCC(=O)Nc1cncc(-c2ccc3[nH]nc(-c4cc5c(-c6cccc(F)c6)nccc5[nH]4)c3c2)c1               =                    19
